# Tested on: TK-10
# Protocol summary: NCI tumour cell line growth inhibition, 48 h
The source made the active and inactive calls. No stated cut-off is given here; in the data, active = GI50 up to about 1.1 µM and inactive = higher.
Select the correct class. Options are 1 (active), 0 (inactive) and nothing else.

Task: Hey, what did the test say about Nc1ncnc2c1ncn2C1OC(CSCC(F)(F)F)C(O)C1O (stereo unspecified) ?
Output: 0

Task: Hey, what did the test say about O=P(Nc1ccccc1)(Oc1ccccc1)N(CCCl)CCCl (stereo unspecified) ?
Output: 0

Task: Hey, what did the test say about CCOC(=O)NC ?
Output: 0

Task: Hey, what did the test say about CN(C)C(=S)/N=c1\ss/c(=N\S(=O)(=O)c2ccccc2)n1C ?
Output: 0

Task: Hey, what did the test say about Cc1cccc(=O)c([O-])c1.Cc1cccc(=O)c([O-])c1.[Bi+3].[Cl-] ?
Output: 0

Task: Hey, what did the test say about COc1ccc(OC(C)C(=O)O)c2c(=O)ccccc12 (stereo unspecified) ?
Output: 0

Task: Hey, what did the test say about N=C(N)/N=C(\N)Nc1cnccn1 ?
Output: 0

Task: Hey, what did the test say about Cc1ccc(S(=O)(=O)N/N=C2\C(=O)C3CC2C(Cl)C3Cl)cc1 (stereo unspecified) ?
Output: 0

Task: Hey, what did the test say about COc1ccc(C2OC[C@H]3O[C@@H](OCc4ccccc4)[C@H](O)[C@@H](O)[C@@H]3O2)cc1 (stereo partly specified) ?
Output: 0

Task: Hey, what did the test say about CC(C)C[C@H](NC(=O)[C@H](Cc1ccccc1)NC(=O)CCc1ccccc1)B(O)O ?
Output: 1

Task: Hey, what did the test say about [O-][S+](c1ccccc1)C1CC2CC3(CCC21O)OCCO3 (stereo unspecified) ?
Output: 0
